System tested: benzodiazepine site of the GABA-A receptor
Method: Benzodiazepine Receptor Binding Assay (inhibition of 3H-flunitrazepam binding)
Conditions used: 3H-flunitrazepam ca. 3 nM; 10-20 min at 25° C.
Each entry below lists one item and its recorded IC50 value.
I only need the number, in nM, no unit after it.

Recorded IC50, per entry:
O=C1CCN2C(=C1C(=O)Nc1c(F)cccc1F)N(Cc1ccccn1)c1cc(F)ccc12 :: 24.4
O=C1CCN2C(=C1C(=O)Nc1ccccc1F)N(CCc1ccsc1)c1cc(F)ccc12 :: 0.096
O=C1CCN2C(=C1C(=O)Nc1ccccc1F)N(Cc1ccsc1)c1cc(F)ccc12 :: 0.71
O=C1CCN2C(=C1C(=O)Nc1c(F)cccc1F)N(CCc1cccs1)c1cc(F)ccc12 :: 0.61
O=C1CCN2C(=C1C(=O)Nc1ccccc1F)N(Cc1ccc[n+]([O-])c1)c1cc(F)ccc12 :: 5.19

IC50 lookup needed for O=C1CCN2C(=C1C(=O)Nc1ccccc1F)N(Cc1ccco1)c1cc(F)ccc12 , thanks.
0.59

IC50 lookup needed for O=C1CCN2C(=C1C(=O)Nc1c(F)cccc1F)N(Cc1cccs1)c1cc(F)ccc12 , thanks.
2.98

IC50 lookup needed for O=C1CCN2C(=C1C(=O)Nc1ccccc1F)N(Cc1cc[n+]([O-])cc1)c1cc(F)ccc12 , thanks.
13.4
